- Test system: MS2 coat protein
- Method description: apparent Kd, MS2 coat protein; higher = weaker binding; RNA-MaP array
- Condition notes: ligand present: flavin mononucleotide; designed as: ON switch for flavin mononucleotide
The reader will find reported apparent Kd values listed item by item below.
Measured quantity: apparent Kd (nM)

[[record]]
sequence_chain = "AGCGCCUUAUCAGGAUAUAUGCGCAUGAAGUAGGUACACAUGAGGAUCACCCAUGUCCGGGGAACAUAGAAGGGAUAGAAGUAG"
measurement_target = "MS2 coat protein"
unit = "nM"
readout_number = 48.7

[[record]]
sequence_chain = "AAAUAUAAUCAGAAGGGUUGCUAAACAUGAGGAUCACCCAUGUGAUAACGAUACGAGUAAAUCGAACAGGAUAUGAUGCAGGUU"
measurement_target = "MS2 coat protein"
unit = "nM"
readout_number = 12

[[record]]
sequence_chain = "UUGAUCUGACGAGGAUAUAUCAUAACACCUUUGAUAGAAGGCGUGAUCGACAUGAGGAUCACCCAUGUGCGUGACUUUGGUAGU"
measurement_target = "MS2 coat protein"
unit = "nM"
readout_number = 10.8

[[record]]
sequence_chain = "GUGUUCACUGCAGGAUAUGUACAUGAGGAUCACCCAUGUUGAAACGGCUGGAAUCGGCAGAUGAAACAGAAGGGCAUGAAAAUU"
measurement_target = "MS2 coat protein"
unit = "nM"
readout_number = 9.09

[[record]]
sequence_chain = "AAGUUGAGCACAAAGGAUAUUUGUAAACAAACAUGAGGAUCACCCAUGUGAACAAUAGUACAUACAAAGAAGGUUGAGAUACAUGU"
measurement_target = "MS2 coat protein"
unit = "nM"
readout_number = 25.9

[[record]]
sequence_chain = "CGCCGUACGUCAGGAUAUCACAAUUGGAUCCAUCACAUGAGGAUCACCCAUGUUUACAAGUAGAAUGAGAAGGGACAAGGAUAA"
measurement_target = "MS2 coat protein"
unit = "nM"
readout_number = 43.8

[[record]]
sequence_chain = "UCUAGAUCAUCGUGACAUGAGGAUCACCCAUGUCUGCGGGCAAGAAGGUGGUCGUUGUCUAACACCAAGGAUAUUGAGGGAGGU"
measurement_target = "MS2 coat protein"
unit = "nM"
readout_number = 30.4


---

- Test system: MS2 coat protein
- Method description: apparent Kd, MS2 coat protein; higher = weaker binding; RNA-MaP array
- Condition notes: designed as: OFF switch for flavin mononucleotide; no ligand
Measured quantity: apparent Kd

[[record]]
sequence_chain = "CCUCGUCCGUACAUGAGGAUCACCCAUGUGAGCCCUAAACCCAGAAGGCAAUGAAUACCUAUUCUUGAGGAUAUGGAUCACCGU"
measurement_target = "MS2 coat protein"
measured_quantity = "apparent Kd"
result = "279 nM"

[[record]]
sequence_chain = "UAGCCUCUUAGAGGAUAUUCAUAAGCACGCAAUGAAGAAGGCUAGGACAAGUGGGACAUGAGGAUCACCCAUGUGGGAAUAUGU"
measurement_target = "MS2 coat protein"
measured_quantity = "apparent Kd"
result = "43.3 nM"

[[record]]
sequence_chain = "UAAGAAUCAGGAUAUACAGAAAGAUCAACAAAGAGCCAUAAACAUGAGGAUCACCCAUGUAGAAGGGAACAAAU"
measurement_target = "MS2 coat protein"
measured_quantity = "apparent Kd"
result = "8.14 nM"

[[record]]
sequence_chain = "UAGGAUAACACAGGAUAUACCCUUGUCGUCGGUUCUAAAUUACAUGAGGAUCACCCAUGUCUAAGGUAGAAGGGUGUUUGCGGU"
measurement_target = "MS2 coat protein"
measured_quantity = "apparent Kd"
result = "31.6 nM"

